Data origin, for the record: BigSolDB 2.1

- Condition Set: in sec-butanol, 288.2 K
Recorded Endpoint: solubility (mole fraction)

Enquiry: // returns reported solubility (mole fraction) for input C=C1CC[C@H](O)C/C1=C/C=C1\CCC[C@]2(C)[C@@H]([C@H](C)CCCC(C)C)CC[C@@H]12
Return: 0.176

====

- Condition Set: in propylene glycol, 283.2 K
Recorded Endpoint: solubility (mole fraction)

Enquiry: Returns the measured solubility (mole fraction) for the input molecule. Input: C=C1CC[C@H](O)C/C1=C/C=C1\CCC[C@]2(C)[C@@H]([C@H](C)CCCC(C)C)CC[C@@H]12
Return: 0.00209

====

- Condition Set: in ethylene glycol, 298.2 K
Recorded Endpoint: solubility (mole fraction)
Answers are plain numbers.

Enquiry: Recorded solubility (mole fraction) for C=C1CC[C@H](O)C/C1=C/C=C1\CCC[C@]2(C)[C@@H]([C@H](C)CCCC(C)C)CC[C@@H]12 , please?
Return: 0.000524
